# growth inhibition per record follows
- Test system: HNSC
- assay protocol: growth inhibition (% activity, log2 RLU normalised to DMSO / staurosporine); higher = more growth inhibition
- condition notes: 33 µM
Just the number in %, nothing appended.

Consider the following illustrative entries.
compound	quantity unit	assay value
COc1ccc2c(c1)c(CC(=O)O)c(C)n2C(=O)c1ccc(Cl)cc1	%	-3.23
Nc1nc2c(ncn2COC(CO)CO)c(=O)[nH]1	%	-1.32
CC(C)NCC(O)c1ccc(NS(C)(=O)=O)cc1 (centres undefined)	%	9.65
C#CC1(O)CCC2C3CCc4cc(OC)ccc4C3CCC21C (centres undefined)	%	-0.897
COc1cc(Cc2cnc(N)nc2N)cc(OC)c1OC	%	0.59

For the compound `OC(CCN1CCCCC1)(c1ccccc1)c1ccccc1` , report growth inhibition.
-1.66

Please give measured growth inhibition of the following entry: `Cc1oncc1C(=O)Nc1ccc(C(F)(F)F)cc1`
55.7
